Ref: PubChem BioAssay (Tox21)

target: Acetylcholinesterase (Homo sapiens); assay: Acetylcholinesterase (AChE) small molecule antagonists: colormetric cell-based qHTS assay (AID 1347395); settings: SH-SY5Y cells AChE activity, colorimetric (Ellman); series mostly up to 115 µM; further: on the % scale 0 is the no-effect control and ±100 the full control effect; nearly all actives have a fitted effect of over 30% in size
Records with an inconclusive call do not appear. Activity calls are given as the source filed them. The call rests on the fitted dose curve.
outcome-measure: activity, negative = inhibition

compound	tested-target	outcome-measure	measured-result
CC(=O)C(C)O (stereo unspecified)	Acetylcholinesterase (Homo sapiens)	activity, negative = inhibition	inactive
Nc1cc(S(=O)(=O)O)ccc1O	Acetylcholinesterase (Homo sapiens)	activity, negative = inhibition	inactive
O=C1C(I)=CC(=C(c2cc(I)c(O)c(I)c2)c2ccccc2C(=O)O)C=C1I	Acetylcholinesterase (Homo sapiens)	activity, negative = inhibition	inactive
CC(C)(C)C(=O)NCCCC(=O)O	Acetylcholinesterase (Homo sapiens)	activity, negative = inhibition	inactive
CCOC(=O)c1ccc(OCCN2C[C@H](O)[C@@H](O)[C@H](O)[C@H]2CO)cc1	Acetylcholinesterase (Homo sapiens)	activity, negative = inhibition	inactive
OC(Cc1ccccc1Cl)(Cn1[nH]cnc1=S)C1(Cl)CC1 (stereo unspecified)	Acetylcholinesterase (Homo sapiens)	activity, negative = inhibition	inactive

I need activity, negative = inhibition for every entry listed below, if you could help.
1. NC[C@H](O)c1ccc(O)c(O)c1
2. C=C1CC/C=C(\C)CC[C@@H]2[C@@H]1CC2(C)C
3. C[C@@H]1NC(=O)[C@@H](N)CNC(=O)[C@H](C2CCNC(N)=N2)NC(=O)/C(=C/NC(N)=O)NC(=O)[C@H](CNC(=O)C[C@@H](N)CCCN)NC1=O (stereo partly specified)

Found:
1. inactive
2. inactive
3. -1.67% [at 0.435 µM] (inactive)

Quick one: give me activity, negative = inhibition for each item below, same order please.
1. CCc1oc2ccccc2c1C(=O)c1cc(I)c(O)c(I)c1
2. CNc1ncnc2nc[nH]c12

Found:
["inactive", "inactive"]

###

assay: qHTS assay to identify small molecule antagonists of the estrogen related receptor signaling pathway with the pleiotropic PPARgamma coactivator (PGC) cell viability counter screen (AID 1224822;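 further: viability read after 17.5 h compound exposure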); details: ERR/PGC reporter cell line viability counter screen; series mostly up to 46.1 µM
Results filed as inconclusive are left out. Activity calls are given as the source filed them. Calls come from the whole dose curve; as a rule, active = well fitted cell-killing curve with a large enough effect in the repeat runs; inconclusive = weak or mixed curves, or effect the other way; inactive = flat fitted curve, though single readings scatter.
Return exactly one item of 1.0 = active, 0.0 = inactive

Previously resolved entries follow.
molecule	discrete-label
NCCc1ccc(S(=O)(=O)F)cc1	0.0
CCCN1CCO[C@@H]2c3cc(O)ccc3OC[C@H]21	0.0

Lookup: Record lookup: outcome of this test for CN(N=O)c1ccc(O)c(O)c1 ?
Found: 0.0

Lookup: // return assay outcome for CCS(=O)(=O)Nc1cccc(C(=C2CCCCC2)c2cnc[nH]2)c1
Found: 0.0

Lookup: Test call, this molecule: CC1OC1P(=O)(O)O (configuration not stated)
Found: 0.0

Lookup: Hi team, can someone confirm the assay call for C[N+]1(C)C2CCC1CC(OC(=O)c1c[nH]c3ccccc13)C2 (configuration not stated) ?
Found: 0.0

Lookup: Just curious, what result did C/C=C(/C)C(=O)O[C@H]1C(C)=C2[C@H]([C@@H]1OC(=O)CCCCCCC)[C@@](C)(OC(C)=O)C[C@H](OC(=O)CCC)[C@@]1(O)[C@H]2OC(=O)[C@@]1(C)O get here?
Found: 1.0

Lookup: Check the results log: what was the call for C#CCOC(=O)C1=CCCN(C)C1 ?
Found: 0.0

Lookup: Lab log entry: CC(=O)c1c(O)c(C)c(O)c(Cc2c(O)c3c(c(C(=O)/C=C/c4ccccc4)c2O)OC(C)(C)C=C3)c1O — outcome as called in the assay?
Found: 1.0

Lookup: Given CCCN(CCC)[C@H]1CCc2c(F)ccc(O)c2C1 , state the outcome it received in this test.
Found: 0.0

Lookup: Which result was noted for this molecule in the test: O=[N+]([O-])c1cc(O)c(O)c([N+](=O)[O-])c1
Found: 0.0

Lookup: # lookup: test call for CC[C@@]1(O)C(=O)OCc2c1cc1n(c2=O)Cc2cc3ccccc3nc2-1
Found: 0.0

###

Molecular target: Acetylcholinesterase (Homo sapiens)
Assay: Acetylcholinesterase (AChE) small molecule antagonists: enzyme-based qHTS assay (AID 1347397); further: on the % scale 0 is the no-effect control and ±100 the full control effect; nearly all actives have a fitted effect of over 55% in size
Conditions: AChE enzyme activity inhibition; series mostly up to 115 µM
Description: National Center for Advancing Translational Sciences [NCATS] Division of Preclinical Innovation [DPI] U.S. Environmental Protection Agency [EPA] National Institutes of Environmental Health Sciences [NIEHS] National Toxicology Program [NTP] U.S. Food and Drug Administration [FDA] Acetylcholinesterase (AChE) is the primary cholinesterase in the body that hydrolyzes a key neurotransmitter, acetylcholine. Inhibition of AChE activity can lead to neurotoxicity. […]
Active and inactive are the calls of the source. Calls come from the whole dose curve.
Choose one outcome from this list and give only that: T (active), F (inactive)

Some solved entries appear below for comparison.
compound	discrete-label
CC(C)(C)CC(C)(C)c1ccc(O)c(Cc2ccc(Cl)cc2Cl)c1	F
[O-][N+](=Nc1ccccc1)c1ccccc1	F

Lookup: What did this assay record as the result for CO[C@]1(NC(=O)CSC(F)F)C(=O)N2C(C(=O)O)=C(CSc3nnnn3CCO)CO[C@H]21 ?
Found: F

Lookup: Answer briefly: the call reported for O=C(Nc1ccc(C(=O)O)c(O)c1)c1ccccc1 in this assay.
Found: F

Lookup: Would you mind telling me which call this test gave C=CCOc1cc(Cl)ccc1C(=O)NCCN(CC)CC ?
Found: F

###

molecular target: Acetylcholinesterase (Homo sapiens) (UniProt P22303); assay: Acetylcholinesterase (AChE) small molecule antagonists: fluorescence cell-based qHTS assay (AID 1347398); settings: SH-SY5Y cells; AChE activity; series mostly up to 115 µM; further: on the % scale 0 is the no-effect control and ±100 the full control effect; nearly all actives have a fitted effect of over 50% in size
Sequence (P22303 whole entry, looked up): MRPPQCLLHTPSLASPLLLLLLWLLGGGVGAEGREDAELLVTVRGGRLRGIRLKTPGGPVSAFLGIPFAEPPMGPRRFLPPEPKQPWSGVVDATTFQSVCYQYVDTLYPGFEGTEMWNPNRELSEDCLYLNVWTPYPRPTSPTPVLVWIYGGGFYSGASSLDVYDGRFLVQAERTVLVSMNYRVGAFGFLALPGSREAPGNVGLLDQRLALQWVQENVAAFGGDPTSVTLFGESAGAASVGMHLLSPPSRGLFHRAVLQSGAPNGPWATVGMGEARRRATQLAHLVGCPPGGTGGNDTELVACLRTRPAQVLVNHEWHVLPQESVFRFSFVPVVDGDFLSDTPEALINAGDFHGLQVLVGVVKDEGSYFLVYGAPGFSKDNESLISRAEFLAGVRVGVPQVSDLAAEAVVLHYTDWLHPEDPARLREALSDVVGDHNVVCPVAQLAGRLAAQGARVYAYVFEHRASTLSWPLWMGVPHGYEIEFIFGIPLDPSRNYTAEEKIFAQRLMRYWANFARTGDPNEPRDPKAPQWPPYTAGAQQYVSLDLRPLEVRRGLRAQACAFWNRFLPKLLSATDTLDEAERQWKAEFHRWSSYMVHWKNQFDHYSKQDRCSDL
Records with an inconclusive call do not appear. The source made the active and inactive calls. Calls follow the shape of the full dose curve.
outcome-measure: outcome

// below: answered compounds
compound	measured-result
ClC(Cl)(Cl)c1ccc(C(Cl)(Cl)Cl)cc1	inactive
Cc1ccc(N)c([N+](=O)[O-])c1	inactive
CC(C)(C)CC(=O)OCC(=O)[C@@]1(O)CC[C@H]2[C@@H]3CCC4=CC(=O)C=C[C@]4(C)[C@H]3[C@@H](O)C[C@@]21C	inactive
CCCCCCCCOC(C)=O	inactive
CC(C)OC(=O)C(C)(C)Oc1ccc(C(=O)c2ccc(Cl)cc2)cc1	inactive

Give outcome for each listed item.
1. CCCCOCCOCCOCCOCCO
2. O=C1c2ccccc2C(=O)C1c1ccc(Br)cc1
3. COC(C)(OC)OC
4. Nc1ccn([C@H]2CC[C@@H](CO)O2)c(=O)n1
5. Clc1cc(Cl)nc(Cl)n1
6. CCOC(=O)[C@H](CCc1ccccc1)N[C@@H](C)C(=O)N1C(=O)N(C)C[C@H]1C(=O)O
7. O=C(/C=C/c1ccccc1)OCc1ccccc1

Found:
inactive
inactive
inactive
inactive
inactive
inactive
inactive

Quick one: give me outcome for each item below, same order please.
1. O=C(CCCCCCCCC#CI)Oc1ccccc1
2. Cc1ccc(S(=O)(=O)NCl)cc1
3. COc1ccccc1OCC(O)COC(N)=O (stereo unspecified)
4. CC(C)(CO)CO
5. CCCCCCCC(=O)OCC(COC(=O)CCCCCCC)OC(=O)CCCCCCC
6. CC(C)(C)c1cc(CCC(=O)OCC(COC(=O)CCc2cc(C(C)(C)C)c(O)c(C(C)(C)C)c2)(COC(=O)CCc2cc(C(C)(C)C)c(O)c(C(C)(C)C)c2)COC(=O)CCc2cc(C(C)(C)C)c(O)c(C(C)(C)C)c2)cc(C(C)(C)C)c1O

Found:
1. inactive
2. inactive
3. inactive
4. inactive
5. inactive
6. inactive

###

assay: A CellTox Green Cytotoxicity Assay to monitor cytotoxicity in HepG2 cells - 16 hour (AID 1224876); conditions: CellTox Green fluorescence; series mostly up to 76.8 µM; further: nearly all actives have a fitted effect of over 45% in size
Records with an inconclusive call do not appear. Active and inactive are the calls of the source. Calls follow the shape of the dose curve; as a rule, active = well fitted activation curve with a large enough effect in the repeat runs; inconclusive = weak or mixed curves; inactive = flat fitted curve, though single readings scatter.
Respond only with the outcome that fits, drawn from true (1) = active, false (0) = inactive

Here's what some known entries look like.
molecule	discrete-label
COc1ccc(C(c2ccc(OC)cc2)C(Cl)(Cl)Cl)cc1	false (0)
c1ccc2c(c1)Sc1ccccc1N2CC1CN2CCC1CC2 (configuration not stated)	true (1)
ClC(Cl)=C(c1ccc(Cl)cc1)c1ccccc1Cl	false (0)
Cc1nnc2n1-c1sc(CCc3ccc(CC(C)C)cc3)cc1C(c1ccccc1Cl)=NC2C (configuration not stated)	false (0)
Cc1ccc(N(SC(F)(Cl)Cl)S(=O)(=O)N(C)C)cc1	true (1)

Would you kindly look at the next entry?
Lookup: Hey, what did the test say about N#Cc1cc([N+](=O)[O-])ccc1N ?
Found: false (0)

###

target: Acetylcholinesterase (Homo sapiens); assay: Acetylcholinesterase (AChE) small molecule antagonists: colormetric cell-based qHTS assay (AID 1347395); settings: SH-SY5Y cells AChE activity, colorimetric (Ellman); series mostly up to 115 µM; further: on the % scale 0 is the no-effect control and ±100 the full control effect; nearly all actives have a fitted effect of over 30% in size
Inconclusive results are not listed. Calls of active or inactive are those of the source. Calls follow the shape of the full dose curve.
outcome-measure: activity, negative = inhibition

Sample answers from the record:
compound	tested-target	measured-result
CCOc1c(N2CCOCC2)cnn(C)c1=O	Acetylcholinesterase (Homo sapiens)	inactive
C=COC(=O)C(C)(CC)CCC(C)C (stereo not given)	Acetylcholinesterase (Homo sapiens)	inactive
C[C@]12CCC(=O)C=C1CC[C@@H]1[C@@H]2[C@@H](O)C[C@@]2(C)[C@H]1CC[C@]2(O)C(=O)CO	Acetylcholinesterase (Homo sapiens)	inactive
O=C(OCC1(COC(=O)c2cccnc2)CCCC(COC(=O)c2cccnc2)(COC(=O)c2cccnc2)C1O)c1cccnc1	Acetylcholinesterase (Homo sapiens)	inactive
CN(C)[C@@H]1C(=O)C(C(=O)NCN2CCCC2)=C(O)[C@@]2(O)C(=O)C3=C(O)c4c(O)cccc4[C@@](C)(O)C3C[C@@H]12 (stereo not given in full)	Acetylcholinesterase (Homo sapiens)	inactive

// batch mode: one activity, negative = inhibition value per listed entry
1. O=C(NCCCN1CCOCC1)c1ccc(Cl)cc1
2. COc1ccccc1C=O
3. Cc1cccc(Nc2ccncc2S(=O)(=O)NC(=O)NC(C)C)c1
4. OC[C@H]1O[C@@H](n2cnc3c(=S)nc[nH]c32)[C@H](O)[C@@H]1O
5. O=C(O)c1cc(=O)c2c(OCC(O)COc3cccc4oc(C(=O)O)cc(=O)c34)cccc2o1

Found:
inactive
inactive
inactive
inactive
inactive
